- Tested System: SOS1 protein (Homo sapiens, UniProt Q07889)
- Sequence (Q07889 whole entry): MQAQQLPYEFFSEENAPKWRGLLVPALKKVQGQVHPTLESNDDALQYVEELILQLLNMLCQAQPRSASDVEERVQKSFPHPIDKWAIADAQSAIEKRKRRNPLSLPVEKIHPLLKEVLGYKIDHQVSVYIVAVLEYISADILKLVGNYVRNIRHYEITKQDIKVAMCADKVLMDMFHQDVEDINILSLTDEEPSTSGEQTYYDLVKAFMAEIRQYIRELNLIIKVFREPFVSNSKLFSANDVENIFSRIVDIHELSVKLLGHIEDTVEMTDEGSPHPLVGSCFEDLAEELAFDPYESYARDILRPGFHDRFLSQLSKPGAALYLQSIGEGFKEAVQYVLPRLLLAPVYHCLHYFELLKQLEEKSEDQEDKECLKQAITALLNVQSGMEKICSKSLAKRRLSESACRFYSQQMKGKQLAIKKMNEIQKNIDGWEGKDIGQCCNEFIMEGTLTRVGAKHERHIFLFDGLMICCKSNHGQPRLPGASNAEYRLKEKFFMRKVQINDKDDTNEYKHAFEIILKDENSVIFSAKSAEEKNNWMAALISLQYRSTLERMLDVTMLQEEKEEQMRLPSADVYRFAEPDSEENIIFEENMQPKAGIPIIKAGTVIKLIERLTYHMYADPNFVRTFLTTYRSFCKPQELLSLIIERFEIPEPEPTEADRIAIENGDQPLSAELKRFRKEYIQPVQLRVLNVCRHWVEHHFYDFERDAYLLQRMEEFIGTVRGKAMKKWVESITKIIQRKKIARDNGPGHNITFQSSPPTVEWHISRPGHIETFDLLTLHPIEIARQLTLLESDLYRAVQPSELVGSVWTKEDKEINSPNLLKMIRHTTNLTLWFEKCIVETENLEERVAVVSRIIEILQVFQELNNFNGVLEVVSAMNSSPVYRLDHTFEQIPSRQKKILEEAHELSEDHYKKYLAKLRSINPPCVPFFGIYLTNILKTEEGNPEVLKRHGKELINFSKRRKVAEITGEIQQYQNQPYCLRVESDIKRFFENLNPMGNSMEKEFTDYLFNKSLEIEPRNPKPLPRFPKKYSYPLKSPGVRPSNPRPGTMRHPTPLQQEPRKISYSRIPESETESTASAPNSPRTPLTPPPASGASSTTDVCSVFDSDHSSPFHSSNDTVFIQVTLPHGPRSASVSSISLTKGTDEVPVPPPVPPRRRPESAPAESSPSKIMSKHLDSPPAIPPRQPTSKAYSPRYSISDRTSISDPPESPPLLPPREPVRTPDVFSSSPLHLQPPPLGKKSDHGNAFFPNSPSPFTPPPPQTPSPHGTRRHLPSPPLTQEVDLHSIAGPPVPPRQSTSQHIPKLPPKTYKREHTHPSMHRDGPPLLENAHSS
- Method Notes: SOS1 degradation assay (Western blot), NCI-H358 cells
- Type: cell-based
- Parameters: The degradation of SOS1 by the compounds was investigated on KRAS G12C mutant human non-small cell lung cancer cells NCI-H358; host or cells: NCI-H358 (human cancer cell lines)
- Experimental Conditions: SOS1 degradation, NCI-H358 cells, 24 h, Western blot; read-out: NCI-H358 (G12C) DC50
compounds and their reported DC50

[[record]]
compound = "COc1cc2nc(C)nc(N[C@H](C)c3cc(-c4c(Cl)cccc4CN(C)C)cs3)c2cc1C1=CCC(C(=O)N2CCC(CCOCC3CCN(C(=O)c4ccc(Cl)c(C5CCC(=O)NC5=O)c4)CC3)CC2)CC1 (stereo partly drawn)"
recorded_endpoint = "DC50"
reported_value = "< 0.05 µM"

[[record]]
compound = "CNCc1ccccc1-c1csc([C@@H](C)Nc2nc(C)nc3cc(OC)c([C@H]4CC[C@H](C(=O)N5CCN(CC6CCC7(CC6)CCN(C(=O)c6ccc(F)c(N8CCC(=O)NC8=O)c6)CC7)CC5)CC4)cc23)c1"
recorded_endpoint = "DC50"
reported_value = "< 0.05 µM"

[[record]]
compound = "Cc1nc(N[C@H](C)c2cc(N)cc(C(F)(F)F)c2)c2cc(-c3ccn(CCCN(C)CC4CCC5(CC4)CCN(C(=O)c4ccc(Cl)c(N6CCC(=O)NC6=O)c4)CC5)c(=O)c3)c(C)cc2n1"
recorded_endpoint = "DC50"
reported_value = "1 to 10 µM"

[[record]]
compound = "COc1cc2nc(C)nc(N[C@H](C)c3cc(N)cc(C(F)(F)F)c3)c2cc1[C@H]1CC[C@H](C(=O)N2CCN(CC3CCN(C(=O)c4ccc(Cl)c(N5CCC(=O)NC5=O)c4)CC3)CC2)CC1"
recorded_endpoint = "DC50"
reported_value = "1 to 10 µM"


Any idea what its DC50 is? The compound is COc1cc2nc(C)nc(N[C@H](C)c3cc(N)cc(C(F)(F)F)c3)c2cc1[C@H]1CC[C@H](C(=O)N2CCN(CCN3CCC4(CC3)CCN(C(=O)c3ccc(Cl)c(N5CCC(=O)NC5=O)c3)CC4)CC2)CC1
< 0.05 µM

Also, COc1cc2nc(C)nc(N[C@H](C)c3cc(-c4c(Cl)cccc4CN(C)C)cs3)c2cc1[C@H]1CC[C@H](C(=O)N2CCC(CCCOC3CCN(C(=O)c4ccc(Cl)c(N5CCC(=O)NC5=O)c4)CC3)CC2)CC1 please.
< 0.05 µM

Entry COc1cc2nc(C)nc(N[C@H](C)c3cc(-c4c(Cl)cccc4CN(C)C)cs3)c2cc1[C@H]1CC[C@H](C(=O)N2CCN(CCOCC3CCN(C(=O)c4ccc(Cl)c(N5CCC(=O)NC5=O)c4)CC3)CC2)CC1 please
< 0.05 µM

Try this compound too: COc1cc2nc(C)nc(N[C@H](C)c3cc(N)cc(C(F)(F)F)c3)c2cc1[C@H]1CC[C@H](C(=O)N2CCN(CC3CCC4(CC3)CCN(C(=O)c3ccc(F)c(N5CCC(=O)NC5=O)c3)CC4)CC2)CC1
< 0.05 µM

Subsequent entry: COc1cc2nc(C)nc(N[C@H](C)c3cc(N)cc(C(F)(F)F)c3)c2cc1C1CCC(C(=O)N2CCN(CC3CCC4(CC3)CCN(C(=O)c3ccc(C5CCC(=O)NC5=O)cc3)CC4)CC2)CC1 (stereo partly drawn)
< 0.05 µM
